The origin of these recorded values is ChEMBL document CHEMBL2417535.

# test details: Tmax in Sprague-Dawley rat at 20 mg/kg, po
# Format: ADME, organism-based
# Set-up: dose 20 mg/kg, route oral
# test settings: in vivo
assay metric: Tmax (min)
Numbers only, in min.

Which Tmax is reported for this compound? "O=c1nc(N2CCC3(CC2)SCCS3)sc2c([N+](=O)[O-])cc(C(F)(F)F)cc12" 30

* * *

# test details: Lipophilicity, log P of the compound by shake flask method
# Type: physicochemical
# test settings: octanol/water
assay metric: logP

Hey, quick one: what's logP for each of these?
1. CC1COC2(CCN(c3nc(=O)c4cc(C(F)(F)F)cc([N+](=O)[O-])c4s3)CC2)O1 (racemic)
2. O=c1nc(N2CCC3(CC2)SCCS3)sc2c([N+](=O)[O-])cc(C(F)(F)F)cc12

2.69
3.94

* * *

# test details: Cmax in Sprague-Dawley rat at 10 mg/kg, iv
# Type: ADME, organism-based
# Design: dose 10 mg/kg, route intravenous
# test settings: in vivo
assay metric: Cmax (ng/mL)
One number for each entry, in ng/mL.

Cmax lookup needed for "O=c1nc(N2CCC3(CC2)SCCS3)sc2c([N+](=O)[O-])cc(C(F)(F)F)cc12" , thanks. 1720

* * *

# test details: Cmax in Sprague-Dawley rat at 20 mg/kg, po
# Format: ADME, organism-based
# Set-up: dose 20 mg/kg, route oral
# test settings: in vivo
assay metric: Cmax

Bench note: what Cmax did "O=c1nc(N2CCC3(CC2)SCCS3)sc2c([N+](=O)[O-])cc(C(F)(F)F)cc12" show? 560 ng/mL

* * *

# test details: Oral bioavailability in Sprague-Dawley rat at 20 mg/kg
# Assay type: ADME, organism-based
# test settings: in vivo
assay metric: bioavailability (%)
Answers are plain numbers, in %.

Which bioavailability value is on record for "O=c1nc(N2CCC3(CC2)SCCS3)sc2c([N+](=O)[O-])cc(C(F)(F)F)cc12" ? 26
